# Measurement Target: T1, human TREM2 expressed on cells (human, UniProt Q9NZC2 19-230)
# T1 construct: BW5147.G.1.4 cells stably expressing human TREM2 together with Dap12, or endogenous TREM2 of primary human myeloid cells; also called huT2 BW; hTREM2 expressing cell line
# T1 sequence: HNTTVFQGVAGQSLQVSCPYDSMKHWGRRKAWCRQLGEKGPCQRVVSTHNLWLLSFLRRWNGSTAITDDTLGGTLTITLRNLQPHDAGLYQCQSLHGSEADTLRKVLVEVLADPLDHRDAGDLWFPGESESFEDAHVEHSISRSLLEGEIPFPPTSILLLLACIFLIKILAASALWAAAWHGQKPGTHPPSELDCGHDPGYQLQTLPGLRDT
# Protocol Text: FACS, human DCs; also: test concentration or dose not given here
Here the recorded MFI is given for each entry.
Observation Type: MFI (MFI)

Binder: AL2p-16 (antibody, V domains shown, Fab and IgG formats under one id) VH: QVQLVQSGAEVKKPGSSVKVSCKASGYAFSSHWMNWVRQAPGQGLEWMGRIYPGDGDTNYAQKFRGRVTITADESTSTAYMELSSLRSEDTAVYYCARLLRNQPGASYAMDYWGQGTLVTVSS VL: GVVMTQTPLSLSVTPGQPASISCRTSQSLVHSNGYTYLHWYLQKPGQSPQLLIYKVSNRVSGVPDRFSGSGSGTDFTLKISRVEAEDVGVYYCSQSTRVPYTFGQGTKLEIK
Display Unit: MFI
Measured Number: 327
--
Binder: AL2p-9 (antibody, V domains shown, Fab and IgG formats under one id) VH: QVQLVQSGAEVKKPGSSVKVSCKASGYAFSRSWMNWVRQAPGQGLEWMGRIYPGDGDTNYAQKFQGRVTITADESTSTAYMELSSLRSEDTAVYYCARLLRNQPGASYAMDYWGQGTLVTVSS VL: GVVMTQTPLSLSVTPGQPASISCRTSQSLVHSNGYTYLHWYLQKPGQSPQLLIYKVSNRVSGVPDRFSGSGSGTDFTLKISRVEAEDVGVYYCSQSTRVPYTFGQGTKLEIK
Display Unit: MFI
Measured Number: 322
--
Binder: AL2p-45 (antibody, V domains shown, Fab and IgG formats under one id) VH: QVQLVQSGAEVKKPGSSVKVSCKASGYAFSSDWMNWVRQAPGQGLEWMGRIYPGEGDTNYARKFQGRVTITADESTSTAYMELSSLRSEDTAVYYCARLLRNKPGESYAMDYWGQGTLVTVSS VL: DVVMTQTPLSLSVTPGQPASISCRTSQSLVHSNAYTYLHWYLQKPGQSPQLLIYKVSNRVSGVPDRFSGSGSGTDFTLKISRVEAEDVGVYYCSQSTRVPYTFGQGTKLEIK
Display Unit: MFI
Measured Number: 318
